# Test system: NCI-H460
# Assay Procedure: relative viability (nuclei count vs DMSO), 5 days (fraction); higher = more cells survive
# Particulars: first compound 0.01 µM
Observable: relative viability

{"Compound": "NC(=O)Nc1cc(-c2cccc(F)c2)sc1C(=O)N[C@H]1CCCNC1 [AZD7762] + CC(C)C[C@H](NC(=O)[C@H](Cc1ccccc1)NC(=O)c1cnccn1)B(O)O [Bortezomib] (partner 0.002 µM)", "Data Value": 1.18}
{"Compound": "NC(=O)Nc1cc(-c2cccc(F)c2)sc1C(=O)N[C@H]1CCCNC1 [AZD7762] + COc1cc2c(Oc3ccc(NC(=O)C4(C(=O)Nc5ccc(F)cc5)CC4)cc3F)ccnc2cc1OCCCN1CCOCC1 [Foretinib] (partner 0.25 µM)", "Data Value": 1.12}
{"Compound": "NC(=O)Nc1cc(-c2cccc(F)c2)sc1C(=O)N[C@H]1CCCNC1 [AZD7762] + C[C@@H](Oc1cc(-c2cnn(C3CCNCC3)c2)cnc1N)c1c(Cl)ccc(F)c1Cl [Crizotinib] (partner 1 µM)", "Data Value": 1.13}
{"Compound": "NC(=O)Nc1cc(-c2cccc(F)c2)sc1C(=O)N[C@H]1CCCNC1 [AZD7762] + Cc1nc(NC(=O)N2CCC[C@H]2C(N)=O)sc1-c1ccnc(C(C)(C)C(F)(F)F)c1 [Alpelisib] (partner 2 µM)", "Data Value": 0.604}
